In this section, each of the molecules is paired with its reported melting point.
measure: melting point

>>> print(df.to_string())
                                    molecule    assay_value
 0  COc1ccc(C2NC(=O)NC=C2C(=O)c2ccc(-n3ccnc3)cc2)cc1OC (centres unmarked)  136 to 138 °C
 1  COc1cc(OC)c(C2NC(=O)NC=C2C(=O)c2ccc(-n3ccnc3)cc2)c(OC)c1 (centres unmarked)  130 to 132 °C
 2  COc1ccccc1C1NC(=O)NC=C1C(=O)c1ccc(-n2ccnc2)cc1 (centres unmarked)  140 to 142 °C
 3  O=C1NC=C(C(=O)c2ccc(-n3ccnc3)cc2)C(c2cccc(O)c2)N1 (centres unmarked)  190 to 192 °C
 4  O=C1NC=C(C(=O)c2ccc(-n3ccnc3)cc2)C(c2ccc(Cl)cc2)N1 (centres unmarked)  180 to 182 °C
 5  O=C1NC=C(C(=O)c2ccc(-n3ccnc3)cc2)C(c2ccc(Cl)cc2Cl)N1 (centres unmarked)  138 to 140 °C
 6  O=C1NC=C(C(=O)c2ccc(-n3ccnc3)cc2)C(c2ccccc2)N1 (centres unmarked)  130 to 132 °C
 7  O=C1NC=C(C(=O)c2ccc(-n3ccnc3)cc2)C(c2cccc([N+](=O)[O-])c2)N1 (centres unmarked)  160 to 162 °C
 8  O=C1NC=C(C(=O)c2ccc(-n3ccnc3)cc2)C(c2ccc([N+](=O)[O-])cc2)N1 (centres unmarked)  158 to 160 °C
 9  COc1cc(OC)c(C2NC(=O)NC=C2C(=O)c2ccc(-n3ccnc3)cc2)cc1OC (centres unmarked)  135 to 137 °C
10  COc1cc(C2NC(=O)NC=C2C(=O)c2ccc(-n3ccnc3)cc2)cc(OC)c1OC (centres unmarked)  128 to 130 °C
11  COc1ccc(C2NC(=O)NC=C2C(=O)c2ccc(-n3ccnc3)cc2)c(OC)c1OC (centres unmarked)  138 to 140 °C
12  COc1cccc(C2NC(=O)NC=C2C(=O)c2ccc(-n3ccnc3)cc2)c1 (centres unmarked)  125 to 127 °C
13  O=C1NC=C(C(=O)c2ccc(-n3ccnc3)cc2)C(c2ccccc2[N+](=O)[O-])N1 (centres unmarked)  155 to 157 °C
